System: LS174T colon cancer cells
assayProtocol: LS174T cell proliferation assay
Format: cell-based
conditionDescription: Homo sapiens, LS174T; Table 2; 10 μM; read-out: inhibition of cell proliferation (%) of colon cancer LS174T cells
# maps each entry to its inhibition at 10 µM
Field format: number, assumed %, no unit text.

The examples below pair each entry with its known result.
INSERT INTO results (smilesinput, assaytarget, result) VALUES
  ('Cn1ccc2cc(C#Cc3c(F)cccc3F)ccc21', 'LS174T colon cancer cells', 95.2),
  ('Fc1cccc(F)c1C#Cc1ccc2cncnc2c1', 'LS174T colon cancer cells', 96.3),
  ('CN(C)c1ccc(C#Cc2c(F)cccc2F)nc1', 'LS174T colon cancer cells', 85.2),
  ('Fc1cccc(F)c1C#Cc1cncc2ccccc12', 'LS174T colon cancer cells', 87.9),
  ('Cn1ncc2cc(C#Cc3c(F)cccc3F)ccc21', 'LS174T colon cancer cells', 94.6),
  ('CN(C)c1cnc(C#Cc2c(F)cccc2F)cn1', 'LS174T colon cancer cells', 91.6);

INPUT: Give LS174T colon cancer cells inhibition at 10 µM for "Fc1cccc(F)c1C#Cc1ccc2nccc(Cl)c2c1"
OUTPUT: 89.7

INPUT: Value wanted: inhibition at 10 µM (LS174T colon cancer cells) of entry "Fc1cccc(F)c1C#Cc1nccc2ccccc12"
OUTPUT: 96.7

INPUT: Could you share what inhibition at 10 µM was measured for "Cn1ncc2ccc(C#Cc3c(F)cccc3F)cc21" , tested on LS174T colon cancer cells?
OUTPUT: 98.1

INPUT: Observed inhibition at 10 µM on LS174T colon cancer cells for "Fc1cccc(F)c1C#Cc1cnc2ccccc2c1Cl" , please.
OUTPUT: 80.4

INPUT: Record lookup: for LS174T colon cancer cells, what inhibition at 10 µM belongs to "Fc1cccc(F)c1C#Cc1ccc2cnccc2c1" ?
OUTPUT: 82.4

Hello, the source for this data is patent US10449186B2, in case you need it.
